Tested on: 873145-292-R-J1-PDC complex spheroid viability
Test: Anticancer human tumor 873145-292-R-J1-PDC patient-derived renal clear cell carcinoma cell line growth inhibition [POLQ]
Details: second compound 10 µM; first compound 3.16 µM; stronger effect = lower value
In this section, each of the compounds is paired with its reported viability, T/C.
Reply numerically in %, unit not repeated.

COMPOUND	ASSAY TARGET	READOUT UNITS	viability, T/C
COc1ccc([C@@H](O)c2cc(-c3ncnc4cc(N5CCOCC5)ccc34)c(F)cc2Cl)nn1 + COC1C(OC(N)=O)C(O)C(Oc2ccc3c(O)c(NC(=O)c4ccc(O)c(CC=C(C)C)c4)c(=O)oc3c2C)OC1(C)C	873145-292-R-J1-PDC complex spheroid viability	%	58.9
COc1cc(C2c3cc4c(cc3C(OC3OC5COC(C)OC5C(O)C3O)C3COC(=O)C23)OCO4)cc(OC)c1O (stereo not given) + Nc1ccc(C#CCN(C(=O)Cc2ncc(C(F)(F)F)cc2C(F)(F)F)c2ccc(F)cc2)nn1	873145-292-R-J1-PDC complex spheroid viability	%	78.5

For the compound shown here, Nc1ccn(C2OC(CO)C(O)C2(F)F)c(=O)n1 (stereo not given) + Nc1ccc(C#CCN(C(=O)Cc2ncc(C(F)(F)F)cc2C(F)(F)F)c2ccc(F)cc2)nn1 , give the reported viability, T/C.
59.4

For the compound shown here, C=CC(=O)N1CCN(c2nc(=O)n(-c3c(C)ccnc3C(C)C)c3nc(-c4c(O)cccc4F)c(F)cc23)C(C)C1 (stereo not given) + Nc1ccc(C#CCN(C(=O)Cc2ncc(C(F)(F)F)cc2C(F)(F)F)c2ccc(F)cc2)nn1 , give the reported viability, T/C.
134

For the compound shown here, O=C(c1cc(Cc2n[nH]c(=O)c3ccccc23)ccc1F)N1CCN(C(=O)C2CC2)CC1 + Cc1cccc(N(C)C(=O)C2C(O)CCN2c2nc(C)cc(C(F)(F)F)c2C#N)c1 , give the reported viability, T/C.
102

----------
Tested on: 873145-292-R-J1-PDC complex spheroid viability
Assay: Anticancer human tumor 873145-292-R-J1-PDC cell line growth inhibition [POLQ];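 also: spheroids exposed to compounds for 7 days before viability readout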
Settings: curve of first compound; second compound 0.1 µM
pIC50: −log10 of the molar value.
In this section, each of the compounds is paired with its reported pIC50.

Reference set, count: 2
COMPOUND	OBSERVED RESULT
COc1cc(C2c3cc4c(cc3C(OC3OC5COC(C)OC5C(O)C3O)C3COC(=O)C23)OCO4)cc(OC)c1O (stereo not drawn) + Nc1ccc(C#CCN(C(=O)Cc2ncc(C(F)(F)F)cc2C(F)(F)F)c2ccc(F)cc2)nn1	< 5.00
Cn1ncnc1[C@H]1c2n[nH]c(=O)c3cc(F)cc(c23)N[C@@H]1c1ccc(F)cc1 + Cc1cccc(N(C)C(=O)C2C(O)CCN2c2nc(C)cc(C(F)(F)F)c2C#N)c1	< 7.00

Now for another entry.
For the compound shown here, CC1COCCN1c1cc(C2(S(C)(=N)=O)CC2)nc(-c2ccnc3[nH]ccc23)n1 (stereo not drawn) + Cc1cccc(N(C)C(=O)C2C(O)CCN2c2nc(C)cc(C(F)(F)F)c2C#N)c1 , give the reported pIC50.
< 5.00

----------
In this section, each of the molecules is paired with its reported viability, T/C.
Test system: 873145-292-R-J1-PDC complex spheroid viability
Assay: Anticancer human tumor 873145-292-R-J1-PDC cell line growth inhibition [POLQ];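 also: spheroids exposed to compounds for 7 days before viability readout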;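 as to viability, T/C: luminescence signal used as surrogate for viable cell content; 100% = DMSO vehicle control viability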
Conditions: second compound 3.16 µM; first compound 3.16 µM; stronger effect = lower value
Reply numerically in %, unit not repeated.

Reference set, count: 2
MOLECULE	viability, T/C / %
CC1COCCN1c1cc(-c2ccnn2C)c2ccnc(-c3ccn[nH]3)c2n1 (stereo not drawn) + COC1C(OC(N)=O)C(O)C(Oc2ccc3c(O)c(NC(=O)c4ccc(O)c(CC=C(C)C)c4)c(=O)oc3c2C)OC1(C)C	38.3
CCCS(=O)(=O)Nc1ccc(F)c(C(=O)c2c[nH]c3ncc(-c4ccc(Cl)cc4)cc23)c1F + COC1C(OC(N)=O)C(O)C(Oc2ccc3c(O)c(NC(=O)c4ccc(O)c(CC=C(C)C)c4)c(=O)oc3c2C)OC1(C)C	89.5

Now for another entry.
Given the entry O=c1[nH]cc(F)c(=O)[nH]1 + COC1C(OC(N)=O)C(O)C(Oc2ccc3c(O)c(NC(=O)c4ccc(O)c(CC=C(C)C)c4)c(=O)oc3c2C)OC1(C)C , what viability, T/C was observed with 873145-292-R-J1-PDC complex spheroid viability?
101

----------
System: 873145-292-R-J1-PDC complex spheroid viability
Experiment: Anticancer human tumor 873145-292-R-J1-PDC cell line growth inhibition [POLQ];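 also: spheroids exposed to compounds for 7 days before viability readout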;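 as to viability, T/C: luminescence signal used as surrogate for viable cell content; 100% = DMSO vehicle control viability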
Conditions: second compound 0.316 µM; first compound 0.316 µM; stronger effect = lower value
READOUT KIND: viability, T/C (%)
Reply numerically in %, unit not repeated.

MOLECULE	READOUT UNITS	OBSERVED RESULT
C=CC(=O)N1CCN(c2nc(=O)n(-c3c(C)ccnc3C(C)C)c3nc(-c4c(O)cccc4F)c(F)cc23)C(C)C1 (configuration not stated) + COC1C(OC(N)=O)C(O)C(Oc2ccc3c(O)c(NC(=O)c4ccc(O)c(CC=C(C)C)c4)c(=O)oc3c2C)OC1(C)C	%	118
O=c1[nH]cc(F)c(=O)[nH]1 + Nc1ccc(C#CCN(C(=O)Cc2ncc(C(F)(F)F)cc2C(F)(F)F)c2ccc(F)cc2)nn1	%	87.6
CC1COCCN1c1cc(C2(O)CC3CCC(C2)O3)c2cnn(-c3ccn[nH]3)c2n1 (configuration not stated) + COC1C(OC(N)=O)C(O)C(Oc2ccc3c(O)c(NC(=O)c4ccc(O)c(CC=C(C)C)c4)c(=O)oc3c2C)OC1(C)C	%	50.2
C=CCn1c(=O)c2cnc(Nc3ccc(N4CCN(C)CC4)cc3)nc2n1-c1cccc(C(C)(C)O)n1 + COC1C(OC(N)=O)C(O)C(Oc2ccc3c(O)c(NC(=O)c4ccc(O)c(CC=C(C)C)c4)c(=O)oc3c2C)OC1(C)C	%	83.5
CC(C)n1c(=O)n(C)c2cnc3cc(F)c(-c4ccc(OCCCN5CCCCC5)nc4)cc3c21 + Nc1ccc(C#CCN(C(=O)Cc2ncc(C(F)(F)F)cc2C(F)(F)F)c2ccc(F)cc2)nn1	%	97

For the molecule shown here, CCc1cc2c(N3CCc4c(cc(Cn5ccnc5)cc4-c4cn(C)nc4C(F)(F)F)C3=O)cc(C)nc2c(OC)n1 + COC1C(OC(N)=O)C(O)C(Oc2ccc3c(O)c(NC(=O)c4ccc(O)c(CC=C(C)C)c4)c(=O)oc3c2C)OC1(C)C , give the reported viability, T/C.
94.3

For the molecule shown here, CC(C)n1c(=O)n(C)c2cnc3cc(F)c(-c4ccc(OCCCN5CCCCC5)nc4)cc3c21 + COC1C(OC(N)=O)C(O)C(Oc2ccc3c(O)c(NC(=O)c4ccc(O)c(CC=C(C)C)c4)c(=O)oc3c2C)OC1(C)C , give the reported viability, T/C.
109

----------
Test system: 873145-292-R-J1-PDC complex spheroid viability
Assay: Anticancer human tumor 873145-292-R-J1-PDC cell line growth inhibition [POLQ];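 also: spheroids exposed to compounds for 7 days before viability readout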;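 as to viability, T/C: luminescence signal used as surrogate for viable cell content; 100% = DMSO vehicle control viability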
Settings: second compound 10 µM; first compound 3.16 µM; stronger effect = lower value
READOUT KIND: viability, T/C

Reference set, count: 3
MOLECULE	viability, T/C
O=C(Nc1ccc(O)c(NS(=O)(=O)c2ccc(F)cc2)c1)c1ccc(-c2ccccc2)cc1 + Cc1cccc(N(C)C(=O)C2C(O)CCN2c2nc(C)cc(C(F)(F)F)c2C#N)c1	111%
COc1cc(C2c3cc4c(cc3C(OC3OC5COC(C)OC5C(O)C3O)C3COC(=O)C23)OCO4)cc(OC)c1O (stereo unspecified) + Cc1cccc(N(C)C(=O)C2C(O)CCN2c2nc(C)cc(C(F)(F)F)c2C#N)c1	60%
C=CC(=O)N1CCN(c2nc(=O)n(-c3c(C)ccnc3C(C)C)c3nc(-c4c(O)cccc4F)c(F)cc23)C(C)C1 (stereo unspecified) + Cc1cccc(N(C)C(=O)C2C(O)CCN2c2nc(C)cc(C(F)(F)F)c2C#N)c1	120%

For the molecule shown here, CCc1cc2c(N3CCc4c(cc(Cn5ccnc5)cc4-c4cn(C)nc4C(F)(F)F)C3=O)ccnc2c(OC)n1 + Nc1ccc(C#CCN(C(=O)Cc2ncc(C(F)(F)F)cc2C(F)(F)F)c2ccc(F)cc2)nn1 , give the reported viability, T/C.
84.9%

For the molecule shown here, CCc1cc2c(N3CCc4c(cc(Cn5ccnc5)cc4-c4cn(C)nc4C(F)(F)F)C3=O)cc(C)nc2c(OC)n1 + COC1C(OC(N)=O)C(O)C(Oc2ccc3c(O)c(NC(=O)c4ccc(O)c(CC=C(C)C)c4)c(=O)oc3c2C)OC1(C)C , give the reported viability, T/C.
92.6%

For the molecule shown here, COc1cc2cc(C(=O)CCC(=O)O)sc2cc1OC + Cc1cccc(N(C)C(=O)C2C(O)CCN2c2nc(C)cc(C(F)(F)F)c2C#N)c1 , give the reported viability, T/C.
104%
